From: PubChem BioAssay

test: hepatitis C replication reporter changes, two-sided – Huh7 cells, luciferase reporter, HCV replication inhibitor project, primary screen (AID 1109); conditions: Huh7 HCV replicon luciferase reporter, 48 h; higher = more signal;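 further: huh7 hepatoma cells harbouring a luciferase neomycin HCV replicon reporter; luciferase luminescence as measure of HCV replicon replication; test concentration not given here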
Label MET for high-side z-score (at or above -1) and NOT MET for low-side z-score (below it).

Identify whether the reported z-score of the following molecule is -1 or greater: COc1ccc([Si](C)(C)[C@H]2[C@H](CCO)O[C@@]3(C(=O)N(Cc4cccc(N5C(=O)c6cccc7cccc5c67)c4)c4ccccc43)[C@@H]2C)cc1 NOT MET

Identify whether the reported z-score of the following molecule is -1 or greater: CCCCC(=C=CC[C@H](O)c1ccccc1OCCO)C[C@H](O)c1cc(Cl)cc(Cl)c1O NOT MET

Identify whether the reported z-score of the following molecule is -1 or greater: CN1C(=O)C2C=CC(C(O)C(C)(C)C)N(Nc3ccccc3)C2C1=O (configuration not stated) MET

Identify whether the reported z-score of the following molecule is -1 or greater: O=C1OCC=C[C@H]2OC34C=CCN(CCN5CCOCC5)C(=O)[C@H]3N(CCCCCCO)C(=O)[C@@H]4[C@@H]12 (some centres not stated) MET

Identify whether the reported z-score of the following molecule is -1 or greater: C=CCN1C(=O)[C@]2(Cc3ccccc31)N=C(c1ccc(OCCCO)cc1)O[C@@H]2c1ccccc1 NOT MET

Identify whether the reported z-score of the following molecule is -1 or greater: CCN(CC)c1ccc(N2CC=CC34O[C@@H]5C=CCOC(=O)[C@@H]5[C@H]3C(=O)N(CCCCCO)[C@@H]4C2=O)cc1 (some centres not stated) MET

Identify whether the reported z-score of the following molecule is -1 or greater: C=CCOC(=O)[C@H]1[C@@H]2C(=O)O[C@@H](c3ccccc3)[C@@H](c3ccccc3)N2[C@@H](c2ccc(OCCOC(=O)[C@H]3C[C@H]4C(=O)N[C@@H](CCCC[N+](C)(C)C)C(=O)N4[C@H]3c3ccc(O)cc3)cc2)[C@]12C(=O)Nc1ccccc12 MET

* * *

So I've got a bunch of molecules here, and I need their z-score values.
test: growth of efflux-deficient E. coli DRC39 – strain DRC39, OD650, 48 h, E. coli filamentation inducers, primary screen (AID 1179);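 further: screen aims at cell division blockers that make cells filament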; conditions: E. coli DRC39 delta-acrAB growth, higher = more signal, called active from +8 up or from −8 down
Would you mind answering with just the numeric figure?

Bench note: what z-score did O=P(NCC1(CC2(c3ccccc3)CO2)CC1)(c1ccccc1)c1ccccc1 (stereo unspecified) show? -0.0173

Bench note: what z-score did C=CCNC(=O)[C@H]1[C@@H]2C(=O)O[C@@H](c3ccccc3)[C@@H](c3ccccc3)N2[C@@H](c2ccc(OCCO)cc2)[C@]12C(=O)N(C(=O)OCCOC)c1ccc(C#CC3(O)CCCCCC3)cc12 show? 1.16

Bench note: what z-score did CO[C@H]1O[C@H](CO)[C@@H](OC(=O)Nc2ccc3c(c2)OCO3)[C@H](OC(=O)Nc2ccc3c(c2)OCO3)[C@H]1OC(=O)Nc1ccc2c(c1)OCO2 show? -0.273

Bench note: what z-score did C=C(COC)C(=O)CC[C@H](OC(=O)c1cccnc1)c1ccccc1OCCO show? -0.285

Bench note: what z-score did CCCC[C@@H]1C[C@H]1[C@@H](NC(=O)c1ccccc1)c1ccc(-c2ccccc2)cc1 show? -0.293

Bench note: what z-score did COC(=O)c1c(CC[C@@H](CO)NC(=O)Nc2ncn[nH]2)oc(C(=O)Cc2ccccc2)c1C(=O)OC show? 0.434

Bench note: what z-score did COC(=O)[C@@]1(Cc2ccccc2)[C@H]2c3cc(C(=O)N(C)C)n(Cc4ccccc4)c3C[C@H]2CN1C(=O)c1ccccc1 show? -0.411

Bench note: what z-score did COCCn1c(C(=O)N(C)C)cc2c1C[C@H]1CN(C(=O)c3ccccc3)[C@@](Cc3ccc(F)cc3)(C(=O)OC)[C@@H]21 show? 0.223

Bench note: what z-score did CN(C)CCCC[C@@H]1NC(=O)[C@@H]2C[C@H](C(=O)NCCCCCCN)[C@H](c3ccc(O)cc3)N2C1=O show? -0.234

Bench note: what z-score did Cc1ccc(S[C@]2(C(=O)NCC(C)C)CC(=O)N(Cc3ccccc3)[C@@H]2c2ccc(CO)cc2)cc1 show? -0.667

Bench note: what z-score did C=C(C(=O)CC[C@@H](OC(=O)c1cccnc1)c1ccc(OCCO)cc1)C(C)C show? -0.694

Bench note: what z-score did COc1c(C)cc(-c2cc3c(c(-c4ccccc4)n2)[Si](C(C)C)(C(C)C)O[C@H]3c2ccccc2)cc1C show? -0.446

Bench note: what z-score did Cc1ccc(S[C@]2(C(=O)NCc3ccccc3)CC(=O)N(Cc3cc(C(F)(F)F)cc(C(F)(F)F)c3)[C@@H]2c2ccc(CO)cc2)cc1 show? -0.532

Bench note: what z-score did O=C1C2C=CC(C(O)c3cccc4ccccc34)N(n3cnnc3)C2C(=O)N1Cc1ccccc1 (stereo unspecified) show? -1.14

Bench note: what z-score did C=C[C@H](C)[C@H](O)c1ccc(OCCO)cc1 show? 0.715

Bench note: what z-score did O=C1[C@H]2C=C(Br)[C@H](C[C@@H]2OCCOCCO)[C@@]12CO2 show? -1.05

Bench note: what z-score did O=C1C[C@@](C(=O)O)(c2ccc([N+](=O)[O-])cc2)[C@@H](c2ccc(CO)cc2I)N1CC12CC3CC(CC(C3)C1)C2 show? -0.0671

Bench note: what z-score did C#C[C@H]1Oc2ccccc2S(=O)(=O)N2CCC[C@@H]12 show? -0.29

Bench note: what z-score did [N-]=[N+]=Nc1ccccc1[C@@H]1OC(c2ccc(OCCCO)cc2)=N[C@]1(CCS(=O)(=O)c1ccccc1)C(=O)N1CCCCC1 show? -0.933

Bench note: what z-score did COc1ccccc1CN1C(=O)c2ccccc2[C@](Cc2ccccc2I)(C(=O)NC2CC2)[C@@H]1c1ccc(CO)cc1 show? 0.877

Bench note: what z-score did NC(=O)NCC#Cc1ccc2c(c1)[C@]1(C(=O)N2)[C@H](C(=O)NC[C@H](O)c2ccccc2)[C@H]2C(=O)O[C@H](c3ccccc3)[C@H](c3ccccc3)N2[C@@H]1c1ccccc1OCCO show? 0.0227

Bench note: what z-score did C=CC[C@@]1(C(=O)NCc2ccccc2)N=C(c2ccc(OCCCO)cc2)O[C@@H]1c1ccccc1CN=[N+]=[N-] show? -0.793

Bench note: what z-score did O=C(CS)NCCCCCNC(=O)[C@H]1C[C@H]2C(=O)N[C@@H](Cc3ccccc3)C(=O)N2[C@H]1c1cccc(OCCO)c1 show? 1.68

Bench note: what z-score did CCOC(=O)C1=CC[C@@H](c2ccccc2)N(S(=O)(=O)c2ccc(C)cc2)[C@H]1c1ccc(C#N)cc1 show? -0.288

Bench note: what z-score did CN1C(=O)C2C=CC(C(O)C(c3ccccc3)c3ccccc3)N(Nc3ccccc3)C2C1=O (stereo unspecified) show? -1.38

Bench note: what z-score did C[C@]1(C(=O)NCC(F)(F)F)c2ccccc2C(=O)N(Cc2cc(F)cc(C(F)(F)F)c2)[C@H]1c1ccc(CO)cc1 show? -0.376

Bench note: what z-score did COC(=O)[C@@]1(Cc2ccc(F)cc2)[C@H]2c3cc(C(=O)N(C)C)n(CCc4c[nH]c5ccc(OC)cc45)c3C[C@H]2CN1C(=O)c1ccccc1 show? -0.681

Bench note: what z-score did O=C1OCC=C[C@H]2OC34C=CCN(c5ccc(Cl)cc5)C(=O)[C@H]3N(CCCO)C(=O)[C@@H]4[C@@H]12 (stereo partly specified) show? 0.579

Bench note: what z-score did O=C1OCCC=C[C@H]2OC34C=CCN(c5ccc6ccccc6c5)C(=O)[C@H]3N(CCCCCCO)C(=O)[C@@H]4C12 (stereo partly specified) show? 1.29

Bench note: what z-score did CN1C(=O)C2C=CC(C(O)C=Cc3ccc([N+](=O)[O-])cc3)N(N3CCCCC3)C2C1=O (stereo unspecified) show? -0.397

Bench note: what z-score did Cc1ccc(C(C)CC(O)C2C=CC3C(=O)NC(=O)C3N2Nc2ccccn2)o1 (stereo unspecified) show? 0.215
